molecular target: mutant HIV reverse transcriptases (Human immunodeficiency virus type 1, UniProt P12497, Y775L, cells depend on it)
parameter: EC50

chemical_smiles=O=C(CSc1nnc(Br)n1-c1ccc(C2CC2)c2ccccc12)Nc1ccc(C(=O)N[C@@H](Cc2ccc(O)cc2)C(=O)O)cc1Cl observed_measurement="> 100 nM"

Respectfully, I request EC50 for each entry included below.
1. Cc1cc(S(N)(=O)=O)ccc1NC(=O)CSc1nnc(Br)n1-c1ccc(C2CC2)c2ccccc12
2. Cc1cc(S(N)(=O)=O)ccc1NC(=O)CSc1nnc(Br)n1-c1ccc(C2CCC2)c2ccccc12
3. CN(CC(=O)O)C(=O)c1ccc(NC(=O)CSc2nnc(Br)n2-c2ccc(C3CC3)c3ccccc23)c(Cl)c1
4. Cc1cc(S(N)(=O)=O)ccc1NC(=O)CSc1nnc(Br)n1-c1c(Cl)cc(C2CCC2)c2ccccc12

Reply:
1. < 50 nM
2. < 50 nM
3. > 100 nM
4. < 50 nM

Respectfully, I request EC50 for each entry included below.
1. COC(=O)[C@H](CC(C)C)NC(=O)c1ccc(NC(=O)CSc2nnc(Br)n2-c2ccc(C3CC3)c3ccccc23)c(Cl)c1
2. O=C(CSc1nnc(Br)n1-c1c(Cl)cc(C2CCC2)c2ccccc12)Nc1ccc(C(=O)O)cc1Cl
3. CCCCCCNC(=O)c1ccc(NC(=O)CSc2nnc(Br)n2-c2ccc(CC)c3ccccc23)c(Cl)c1

Reply:
1. 50 to 100 nM
2. < 50 nM
3. 50 to 100 nM

Respectfully, I request EC50 for each entry included below.
1. CCOC(=O)CCNC(=O)c1ccc(NC(=O)CSc2nnc(Br)n2-c2ccc(C3CC3)c3ccccc23)c(Cl)c1
2. CCNC(=O)c1ccc(NC(=O)CSc2nnc(Br)n2-c2ccc(CC)c3ccccc23)c(Cl)c1

Reply:
< 50 nM
< 50 nM

Respectfully, I request EC50 for each entry included below.
1. Cc1ccc(-n2c(SCC(=O)Nc3ccc(S(=O)(=O)NCCC(=O)O)cc3Cl)nnc2C(F)F)c2c1CCCC2
2. Cc1cc(S(N)(=O)=O)ccc1NC(=O)CSc1nnc(Br)n1-c1ccc2c3c(cccc13)CC2
3. CC(C)[C@H](NC(=O)c1ccc(NC(=O)CSc2nnc(Br)n2-c2ccc(C3CC3)c3ccccc23)c(Cl)c1)C(=O)O
4. CNS(=O)(=O)c1ccc(NC(=O)CSc2nnc(C(F)F)n2-c2ccc(C)c3c2CCCC3)c(Cl)c1

Reply:
> 100 nM
< 50 nM
50 to 100 nM
< 50 nM
